Value source: patent US20240117066A1

- measured.target: T1, recombinant human uPAR protein (Leu23-Arg303) with a C-terminal 6-his tag (human, UniProt Q03405 23-303)
- T1 construct: also called CD87
- T1 sequence (Q03405 other isoform, or with tags, fused parts or gaps): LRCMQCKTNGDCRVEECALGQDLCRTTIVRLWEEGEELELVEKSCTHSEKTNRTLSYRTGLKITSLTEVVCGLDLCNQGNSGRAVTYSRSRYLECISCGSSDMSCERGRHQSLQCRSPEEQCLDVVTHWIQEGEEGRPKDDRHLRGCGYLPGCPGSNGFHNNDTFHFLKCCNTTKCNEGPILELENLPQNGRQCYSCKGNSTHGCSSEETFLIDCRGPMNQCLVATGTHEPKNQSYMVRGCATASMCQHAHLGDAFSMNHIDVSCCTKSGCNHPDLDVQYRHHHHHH
- protocol.text: Biacore (SPR), single cycle kinetics
pKd: −log10 of the molar value.

>  <binder>
6C8 antibody (antibody, V domains shown) VH: EVQLVESGGGLVQPGGSLKISCAASGFTFTNYGMSWVRQTPDKRLELVATTNSNGGATYYPDSVKGRFTISRDNAKNTLYLQMSSLKSEDTAMYFCTRDRDYYGGSMDYWGQGTSVTVSS VL: DIVMSQSPSSLAVSVGERVSMSCKSSQSLLYSSDQKNYLAWYQQKPGQSPELLIYWASTRESGVPDRFTGSGSGTDFTLTISSVKAEDLAIYYCQQYYSYPFTFGSGTKLEIK

>  <pKd>
8.18

$$$$
>  <binder>
11E10 antibody (antibody, V domains shown) VH: QVQLQQSGPELVKPGASVKMSCKTSGYTFTDYVITWVKQRTGQGLEWIGEIYPRSGNTYYNAKFRGKATLTADKSSNTAYMQLSSLTSEDSAVYFCARGGYYDFDFFAMDYWGQGTSVTVSS VL: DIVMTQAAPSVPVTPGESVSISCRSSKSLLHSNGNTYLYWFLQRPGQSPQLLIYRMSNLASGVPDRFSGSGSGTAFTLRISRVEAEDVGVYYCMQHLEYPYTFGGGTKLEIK

>  <pKd>
7.02

$$$$
>  <binder>
8B1 antibody (antibody, V domains shown) VH: QIQLVQSGPELKKPGETVKISCKASGYTFTNYGMNWVKQAPGKGLKWMGWINTNTGEPTYAEEFKGRFAFSLETSASTAYLQINNLKNEDTATYFCGDYEFAYWGQGTLVTVSA VL: DIQMTQSPASLSVSVGETVTITCRASENIYSNLAWYQQKQGKSPQLLVYAATNLADGVPSRFSGSGSGTQYSLKINSLQSEDFGSYYCQHFWGTPWTFGGGTKLEIK

>  <pKd>
8.46

$$$$
